- system-name: α1A-ARS (Homo sapiens, UniProt P35348)
- Sequence (P35348 1-466): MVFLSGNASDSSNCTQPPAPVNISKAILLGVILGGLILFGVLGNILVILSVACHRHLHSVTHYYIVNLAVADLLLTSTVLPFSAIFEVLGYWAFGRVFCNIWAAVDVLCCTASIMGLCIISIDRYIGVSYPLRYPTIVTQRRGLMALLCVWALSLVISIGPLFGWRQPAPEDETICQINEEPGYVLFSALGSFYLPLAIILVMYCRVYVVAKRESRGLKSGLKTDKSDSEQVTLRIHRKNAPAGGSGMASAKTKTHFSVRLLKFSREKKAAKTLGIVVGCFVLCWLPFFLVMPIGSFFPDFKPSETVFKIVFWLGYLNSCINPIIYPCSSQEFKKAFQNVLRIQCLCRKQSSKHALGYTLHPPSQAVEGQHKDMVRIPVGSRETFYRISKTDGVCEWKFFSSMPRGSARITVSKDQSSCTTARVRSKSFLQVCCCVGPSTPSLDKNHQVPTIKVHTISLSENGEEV
- assay-remarks: Calcium flux assay (Calcium 6 dye) in cells expressing an α1-AR
- Type: cell-based
- experimental-setup: calcium flux, α1A-AR; mean of at least three experiments; read-out: Average PEC50
assay-endpoint: EC50

Below are worked cases with known answers.
In: What does the record list as EC50 for FC(F)(F)c1ccc(CC2=NCCN2)c(C2CC2)c1 ?
Out: 10 to 977 nM

In: What does the record list as EC50 for Clc1ccc(CC2=NCCN2)c(C2CC2)c1 ?
Out: 10 to 977 nM

In: What does the record list as EC50 for CC(C)(C)c1cc(Cl)ccc1CC1=NCCN1 ?
Out: > 1000 nM

In: What does the record list as EC50 for CCc1c(CC2=NCCN2)ccc(S(=O)(=O)CF)c1Cl ?
Out: > 1000 nM

In: What does the record list as EC50 for Cc1c(CC2=NCCN2)cc(Cl)c2c1cnn2C ?
Out: 10 to 977 nM

In: What does the record list as EC50 for CCC(F)(F)c1c(Cl)cccc1CC1=NCCN1 ?
Out: 10 to 977 nM

In: What does the record list as EC50 for CCc1cc(S(C)(=O)=O)ccc1CC1=NCCN1 ?
Out: 10 to 977 nM

In: What does the record list as EC50 for FCc1cc(Cl)ccc1CC1=NCCN1 ?
Out: 10 to 977 nM

Further cases:
In: What does the record list as EC50 for FC(F)Oc1ccc(Cl)c(CC2=NCCN2)c1 ?
Out: 10 to 977 nM

In: What does the record list as EC50 for COc1cc(Cl)ccc1CC1=NCCN1 ?
Out: 10 to 977 nM

In: What does the record list as EC50 for N#Cc1ccc(CC2=NCCN2)c(C(F)(F)F)c1 ?
Out: > 1000 nM

In: What does the record list as EC50 for c1cc(CC2=NCCN2)c2[nH]ncc2c1 ?
Out: > 1000 nM

In: What does the record list as EC50 for Cc1c(CC2=NCCN2)ccc(S(=O)(=O)CF)c1Cl ?
Out: > 1000 nM

In: What does the record list as EC50 for Cc1ccc(Cl)cc1CC1=NCCN1 ?
Out: 10 to 977 nM

In: What does the record list as EC50 for CC(F)(F)c1cc(OC(F)F)ccc1CC1=NCCN1 ?
Out: 10 to 977 nM

In: What does the record list as EC50 for CCc1cc(S(=O)(=O)C(F)F)ccc1CC1=NCCN1 ?
Out: 10 to 977 nM

In: What does the record list as EC50 for c1ccc(-c2ncco2)c(CC2=NCCN2)c1 ?
Out: 10 to 977 nM

In: What does the record list as EC50 for CCc1c(Cl)cccc1CC1=NCCN1 ?
Out: > 1000 nM

In: What does the record list as EC50 for Clc1ccc(CC2=NCCN2)c(-c2nccs2)c1 ?
Out: < 9.77 nM

In: What does the record list as EC50 for Cc1c(CC2=NCCN2)cccc1-c1ccnn1C ?
Out: 10 to 977 nM

In: What does the record list as EC50 for Clc1ccc(CC2=NCCN2)c(Cc2ccccc2)c1 ?
Out: > 1000 nM

In: What does the record list as EC50 for C[C@H](O)c1cc(Cl)ccc1CC1=NCCN1 ?
Out: > 1000 nM
